Every entry's value here was drawn from ChEMBL document CHEMBL1201862.

Field: GI50. Provide a value for each of the molecules that follow.
test system: KM-20L2; assay: NCI tumour cell line growth inhibition, 48 h
The source made the active and inactive calls. Rule as the data show it: active = GI50 up to about 1.1 µM and inactive = higher.

Lookup result for COC(=O)C1=C(C(=O)OC)C2C=CC1C1C(Cl)=C(Cl)C21 (stereo not drawn) ; measured GI50: > 100 µM (inactive)

Lab book: GI50 of [O-][S+]1Nc2cccc(C(F)(F)F)c2S1 (stereo not drawn) noted as 29.9 µM (inactive)

GI50 measured on CC(C)N1CC2CC(CN(C(=O)c3ccccc3)C2)C1.[O-][Cl+3]([O-])([O-])O = > 100 µM (inactive)

Entry under test: N#CC(C#N)=C(N)/C(C#N)=C/c1ccc(O)c(O)c1 . Its GI50 was 25.1 µM (inactive)

Input CC1OC(n2ccc3ccc([N+](=O)[O-])cc32)C(O)C(O)C1O (stereo not drawn) . Output GI50: > 100 µM (inactive)

Value of measured GI50 for the entry Cc1ccc(C)c(NC(=O)C(=O)CC(=O)c2cccc3ccccc23)c1 : > 100 µM (inactive)

Recorded result, CC1(C)CCc2cc3c(-c4ccccc4)cc(=O)oc3cc2O1 , GI50: > 100 µM (inactive)

Query CN1CCN(CCCN2c3ccccc3Sc3ccc(C(F)(F)F)cc32)CC1 yields GI50 of 2.27 µM (inactive)

---

test system: 786-0; assay: NCI tumour cell line growth inhibition, 48 h
Activity calls are given as the source filed them. No stated cut-off is given here; in the data, active = GI50 up to about 1.1 µM and inactive = higher.
Give measured GI50 for each item. Keep answers brief.

Tested on 786-0: COc1ccc(/C=C(/C(=O)c2ccc(Cl)cc2)N2C=CC=CC2=C(C#N)C#N)cc1OC . Observed GI50: 1.94 µM (inactive)

Short answer on 786-0 for Cc1c(/N=N/c2ccc(Cl)cc2)c(-c2ccccc2)n(C2OC(CO)C(O)C(O)C2O)c(=S)c1C#N (stereo not given) , GI50: 20.2 µM (inactive)

Observed GI50, 786-0, COC(=O)C1=Nc2c(C)nn(-c3ccccc3)c2N=C(c2ccc([N+](=O)[O-])cc2)C1 : > 10 µM (inactive)

# GI50 measured on 786-0 for item COc1ccc(CNc2ccn(C3OC(CO)C(O)C3O)c(=O)n2)cc1 (stereo not given) = > 100 µM (inactive)

GI50 of CC1C=CC(C)C2(O)C(=O)NC(O)C12 (stereo not given) , assay on 786-0, is > 100 µM (inactive)

---

system: HCC 2998; test: NCI tumour cell line growth inhibition, 48 h
Active and inactive are the calls of the source. Cut-off read from the data, not from the text of the source: active = GI50 up to about 1.1 µM and inactive = higher.
API: response.call in T = active, F = inactive

Request: Recorded call for CCOC(=O)NC(=O)c1cn(CCN2CCN(C(=O)CCCCCCCCCCNc3ncnc4[nH]cnc34)CC2)c(=O)[nH]c1=O ?
Response: F

Request: For this molecule, state the assay outcome: COc1ccccc1N1CCN(CCCCNC(=O)c2ccc([N+](=O)[O-])o2)CC1
Response: F

Request: Call for entry COc1nc(NC2OC(COC(C)=O)C(OC(C)=O)C(OC(C)=O)C2OC(C)=O)c(/N=C/C=N/c2c(NC3OC(COC(C)=O)C(OC(C)=O)C(OC(C)=O)C3OC(C)=O)nc(OC)n(C)c2=O)c(=O)n1C (centres undefined) :
Response: F

Request: // param item: O=C(Nc1ccccc1)Nn1c(-c2cccs2)nc2ccc(I)cc2c1=O ; yields the recorded call
Response: F

Request: Test call, this molecule: CCCCCCCCCCCCC/C=C1\C[C@H](O)COC1=O
Response: F

Request: Tell me the recorded outcome of this test for CC(=O)ON(C(C)=O)c1ccc(-c2nc3ccccc3s2)cc1 .
Response: F

Request: Kindly provide the recorded test outcome for the following molecule: Cc1ccc(C(=O)Nc2ccccc2)cc1/N=N/N(C)C
Response: F

Request: Test call, this molecule: O=P1(NCCCl)OCCCN1CCCl (centres undefined) [IFOSFAMIDE]
Response: F

Request: // param item: Cc1ccc(C)c(NC(=O)C(=O)CC(=O)c2cccc3ccccc23)c1 ; yields the recorded call
Response: F

Request: Give the logged outcome of this assay for the following molecule: CC1OC(OC2C(CO)OC(O[C@H]3CC[C@@]4(C)C(=CC[C@H]5[C@@H]6C[C@@H]7O[C@](O)(CC[C@H](CO)COC8OC(CO)C(O)C(O)C8O)[C@@H](C)[C@@H]7[C@@]6(C)CC[C@@H]54)C3)C(OC3OC(C)C(O)C(O)C3O)C2O)C(O)C(O)C1O (some centres undefined)
Response: F

Request: Given CC1=CCCC2C1(C)CCC(C)C2(C)Cc1cc(O)ccc1O (centres undefined) , state the outcome it received in this test.
Response: F

Request: Could you kindly confirm the outcome this assay logged for c1ccc2c(NCCCCCCNc3c4ccccc4nc4ccccc34)c3ccccc3nc2c1 ?
Response: T

Request: Which outcome was entered for the molecule CC(=O)OC(Cn1cncn1)(Cn1cncn1)c1ccc(Cl)cc1Cl in this test?
Response: F

Request: Assay result, entry COc1ccc(C2CC(c3ccc4ccccc4c3O)=NN2C(C)=O)cc1OC (centres undefined) — outcome?
Response: F

Request: Hello, I am checking results. What call was entered for CNC(C)(C)Cc1ccc(Cl)cc1 ?
Response: F

Request: Called result for COC(=O)[C@@]1(O)CC(C)C=C1C=O (some centres undefined)
Response: F

Request: Query: recorded result category for O=C(O)c1nc2ccccc2nc1Nc1ccc(Cl)c(Cl)c1 in this test
Response: F

Request: Kindly provide the recorded test outcome for the following molecule: COc1c(C(=O)O)oc2c(OC)cccc12
Response: F

Request: Name the outcome recorded for COC(=O)C1CC23CCCN4CCC5(c6ccccc6N(C=O)C15CC2)C43 (centres undefined) in the assay.
Response: F

Request: Recorded test call requested for Cc1[nH]c2ccccc2c1C1Cc2ccccc2N1C(=O)/C(Cl)=C/c1ccccc1 (centres undefined)
Response: F

Request: For COC(=O)C12C(=O)CC3CCC1C32C(=O)OC (centres undefined) , which call appears in the assay record?
Response: F

Request: Record lookup: outcome of this test for Cn1nnc2c(C(N)=O)ncn2c1=O [TEMOZOLOMIDE] ?
Response: F

Request: In this assay, the call recorded for CCc1n[nH]c(=O)[nH]1 was what?
Response: F

Request: # lookup: test call for Cc1cn(C2CC(N(C)C)C(CO)O2)c(=O)[nH]c1=O (centres undefined)
Response: F

Request: For CC(C)C(C(=O)O)N(CC1(O)OCC(O)C(O)C1O)N=O (centres undefined) , what call appears in the results of this test?
Response: F

Request: For CCOC(=O)c1c(C)n(Cc2ccccc2)c(=O)c2ccccc2c(=O)c2c(=O)ccc(=O)c1=2 , what call appears in the results of this test?
Response: F

Request: So what was the verdict on COC(=O)c1nsc(OC)c1Cl in this test?
Response: F

Request: Please indicate how the test categorized Cc1ccccc1NC(=O)C(=O)Cc1nc2ccccc2s1 .
Response: F

Request: # fetch the recorded call for COc1cc(C(=O)C/C(CCC(=O)Nc2ccccc2[N+](=O)[O-])=N\NC(N)=O)ccc1O here
Response: F

Request: Returns: the outcome recorded for CCOC(=O)c1c(O)cc(=O)[nH]c1N1CCOCC1 in this assay.
Response: F

Request: Call for entry N[C@@H]1c2c(Br)sc(Br)c2C(=O)[C@H]1Br :
Response: F

Request: Query: recorded result category for CCOC(=O)Nc1cc(NC(/C=N/NC(C)=O)C(=O)OCC)c(OC)cc1NC(C)=O (centres undefined) in this test
Response: F

Request: # fetch the recorded call for Nc1cc(N)c(/N=N/c2cccc3c(S(=O)(=O)O)cccc23)cc1/N=N/c1cc([N+](=O)[O-])ccc1O here
Response: F

Request: Assay outcome for CCCCCCCC/C=C\CCCCCCC/C=C1\C[C@](/C=C/C(=O)OC)(CO)OC1=O : what was it?
Response: F

Request: I'd appreciate the recorded outcome for O=c1n(CC2CO2)c2ccccc2n1CC1CS1 (centres undefined) from this test.
Response: F

Request: What classification did CC(C)(C)OC(=O)NC(CCCCNC(=O)OCc1ccccc1)C(=O)NCCNc1ccc(NCCNC(=O)C(CCCCNC(=O)OCc2ccccc2)NC(=O)OC(C)(C)C)c2c1C(=O)c1ccccc1C2=O (centres undefined) end up with in this test?
Response: F

Request: Which result was noted for this molecule in the test: Cc1ccc(S(=O)(=O)N/N=C(\C(=O)Nc2cccc([N+](=O)[O-])c2)c2nc3ccc([N+](=O)[O-])cc3nc2O)cc1
Response: F

Request: Dear all, I need the recorded test outcome for C/C=C(\C)C(O)C(C)C(O)C/C=C(C)/C=C(\C)C/C(C)=C/C/C=C(\C)C(O)C(C)c1ccc(CCC)c(=O)o1 (centres undefined) , thank you.
Response: F

Request: Hi, do you know how CC(=O)NNc1nc(C)c(C(/C=C/c2ccc(Cl)cc2)=N/NC(=O)C[N+](C)(C)C)s1 came out in this test?
Response: F
